- system name: Q98R
- protocol: SPR; 25C
measured endpoint: pKd
Lab note: report pKd as minus log10 of the concentration in molar units, number only.

Example entries begin here.
BMP10 (ligand) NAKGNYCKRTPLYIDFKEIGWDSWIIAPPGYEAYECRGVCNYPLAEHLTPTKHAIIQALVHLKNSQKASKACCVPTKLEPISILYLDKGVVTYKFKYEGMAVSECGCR = 9.49
Activin A (ligand) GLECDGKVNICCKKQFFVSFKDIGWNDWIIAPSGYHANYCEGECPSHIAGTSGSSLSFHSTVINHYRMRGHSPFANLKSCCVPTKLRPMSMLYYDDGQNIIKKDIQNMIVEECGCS = 9.52
GDF11 (ligand) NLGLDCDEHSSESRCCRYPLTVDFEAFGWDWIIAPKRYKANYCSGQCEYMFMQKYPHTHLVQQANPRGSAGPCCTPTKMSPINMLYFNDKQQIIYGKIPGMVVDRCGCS = 10.70

The binder listed as BMP9 (ligand) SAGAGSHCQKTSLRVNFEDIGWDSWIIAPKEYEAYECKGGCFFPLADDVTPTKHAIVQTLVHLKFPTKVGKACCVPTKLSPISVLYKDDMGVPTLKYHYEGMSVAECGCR has a reported pKd of 10.13
